Origin of measurements: patent US20200031927A1

molecular target: T1, soluble KIR3DL1*001-Fc (human, UniProt P43629 22-340); assay: BLI (Forte-Bio), partial fit, IgG
T1 construct: also called KIR3DL1 allele 001; KIR3DL1 allele-001 antigen; not shown: Fc domain
Assay endpoint: kon (M⁻¹ s⁻¹)
Answer format: numeric, M⁻¹ s⁻¹ implied, no suffix.

Here's what some known entries look like.
Look up kon of ET160-61 (antibody, human IgG1, V domains shown, Tested as human IgG1 (hIgG1), lambda light chain) VH: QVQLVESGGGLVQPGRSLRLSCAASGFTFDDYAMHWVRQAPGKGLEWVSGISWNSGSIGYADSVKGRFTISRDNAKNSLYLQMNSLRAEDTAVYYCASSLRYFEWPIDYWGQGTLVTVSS VL: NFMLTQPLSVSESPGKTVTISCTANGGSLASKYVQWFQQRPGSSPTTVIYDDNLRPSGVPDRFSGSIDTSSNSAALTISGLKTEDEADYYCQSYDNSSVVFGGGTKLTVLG and report it.
127000

Look up kon of ET160-74 (antibody, human IgG1, V domains shown, Tested as human IgG1 (hIgG1), lambda light chain) VH: QVQLVQSGAEVKKPGSSVKVSCKASGGTFSSYAISWVRQAPGQGLEWMGWMNPNSGNTGYAQKFQGRVTMTRNTSISTAYMELSSLRSEDTAVYYCARYSFHLDGWGQGTLVTVSS VL: QSVLTQPPSVSAAPGQKVTISCSGSSSNVGNNYVSWYQQVPGTAPKLLIYDNNRRPSGIPDRFSGSKSGTSATLGITGLQTGDEADYYCGTWDNSLRVELFGGGTKVTVLG and report it.
122000

Look up kon of ET160-72 (antibody, human IgG1, V domains shown, Tested as human IgG1 (hIgG1), lambda light chain) VH: QVQLVQSGGGVVRSGGSLRLTCAASGFTFGDYGMSWVRQAPGKGLEWVSGINWNGGGTGYADSVKGRFTISRDNAKDSLYLQMNSLRAEDTALYYCARVWGCGSTTCYEGADDAFDIWGQGTMVTVSS VL: LPVLTQPPSISGAPRQRVTISCSGARSNIGNNAVNWYQQVPGEAPKLLIFYDDQQPSGISGRFSGSKSGTSASLAISGLQSEDEADYYCAAWDDSLNGWVFGGGTKLTVLG and report it.
134000

Look up kon of ET160-73 (antibody, human IgG1, V domains shown, Tested as human IgG1 (hIgG1), kappa light chain) VH: QVQLVQSGAEVKKPGESLKISCKGSGYSFTSYWIGWVRQMPGKGLEWMGIIYPGDSDTRYSPSFQGQVTISADKSISTAYLQWSSLKASDTAMYYCARGREQLWLDGMDVWGQGTTVTVSS VL: DVVMTQSPLSLPVTLGQPASISCRSTQSLVHSDGNTYLNWFQQRPGQSPRRLIYGVSNRDFGVPDRFSASGSGTDFTLKINRVEAEDVGVYYCMQGTHWPLTFGQGTKVEIKR and report it.
143000

Note: attention shifts to another entry.
Look up kon of ET160-77 (antibody, human IgG1, V domains shown, Tested as human IgG1 (hIgG1), lambda light chain) VH: EVQLVETGGGLVKPGGSLRLSCAASGFTFSDYYMSWIRQAPGKGLEWVSYISSSSSYTNYADSVKGRFTISRDNAKNSLYLQMNSLRAEDTAVYYCAREGIAAADAFDIWGQGTMVTVSS VL: SYELTQPPSVSVAPGQAATITCAGDNIESKSVNWYQQKPGQAPVLVVYDDTVRPSGIPERFSGSNSGNPATLTISRSEAGDEADYYCQVWDNRRDHVVFGGGTKVTVLG and report it.
160000
